The entries below come with measured Ki values attached.
- assayed_target: Sigma non-opioid intracellular receptor 1 (Homo sapiens)
- test_description: Displacement of [3H](+)Pentazocine from sigma 1 receptor in human Jurkat cells after 120 mins by liquid scintillation counting analysis

Recorded Ki, per entry:
                          line_notation                            assayed_target  test_result
0       O=c1sc2ccccc2n1CCCN1Cc2ccccc2C1  Sigma non-opioid intracellular receptor 1 (Homo sapiens)      30.3 nM
1  Cn1c(=O)n(CCCN2Cc3ccccc3C2)c2ccccc21  Sigma non-opioid intracellular receptor 1 (Homo sapiens)     > 100 nM

We next turn to a different compound, shown below.
What value of Ki has been reported for the following compound? Cc1nc2ccccc2n1CCCN(C)Cc1ccccc1
> 100 nM

* * *

- assayed_target: Sigma non-opioid intracellular receptor 1 (Homo sapiens, UniProt Q99720)
- Sequence (Q99720 whole entry): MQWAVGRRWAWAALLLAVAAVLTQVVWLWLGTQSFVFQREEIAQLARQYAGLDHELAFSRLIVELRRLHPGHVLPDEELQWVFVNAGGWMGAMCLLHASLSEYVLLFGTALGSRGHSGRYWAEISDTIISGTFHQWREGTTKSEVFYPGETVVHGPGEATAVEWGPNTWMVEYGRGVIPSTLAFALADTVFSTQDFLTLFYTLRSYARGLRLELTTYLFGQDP
- test_description: Displacement of [3H](+)Pentazocine from sigma 1 receptor in human Jurkat cells after 120 mins by liquid scintillation counting analysis
readout_type: log10 of Ki (log10 of the value in nM)
// do not treat as linear: log10 of Ki, unit nM

Recorded log10 of Ki, per entry:
                              line_notation                            assayed_target  test_result
0  O=C1[C@@H]2Cc3ccccc3CN2C(=O)N1CCCN1Cc2ccccc2C1  Sigma non-opioid intracellular receptor 1 (Homo sapiens, UniProt Q99720)         0.72
1       O=c1sc2cc(Br)ccc2n1CCCN1Cc2ccccc2C1  Sigma non-opioid intracellular receptor 1 (Homo sapiens, UniProt Q99720)         0.76
2     CN(CCCn1c(=O)sc2cc(Br)ccc21)Cc1ccccc1  Sigma non-opioid intracellular receptor 1 (Homo sapiens, UniProt Q99720)        -0.22
3     CN(CCCn1c(=O)sc2ccc(Cl)cc21)Cc1ccccc1  Sigma non-opioid intracellular receptor 1 (Homo sapiens, UniProt Q99720)         0.67
4         CN(CCCn1c(=O)sc2ccccc21)Cc1ccccc1  Sigma non-opioid intracellular receptor 1 (Homo sapiens, UniProt Q99720)         1.01

What value of log10 of Ki has been reported for the following compound? CN(CCCn1c(=O)oc2ccc(Cl)cc21)Cc1ccccc1
0.81

What value of log10 of Ki has been reported for the following compound? CN(CCCn1c(=O)oc2cc(Br)ccc21)Cc1ccccc1
-0.05

What value of log10 of Ki has been reported for the following compound? CN(CCCN1C(=O)CSc2ccc(Br)cc21)Cc1ccccc1
0.34

What value of log10 of Ki has been reported for the following compound? CN(CCCn1c(=O)oc2ccc(Br)cc21)Cc1ccccc1
0.08

What value of log10 of Ki has been reported for the following compound? CN(CCCn1c(=O)sc2ccc(Br)cc21)Cc1ccccc1
0.49
